# credit: patent US6544930B2

# Method Summary: Specific gravity / density of aqueous glyphosate salt solutions and compositions (Mettler DA-300 meter)
# Format: physicochemical
# Condition Set: 20/18.6° C.; 30% a.e. by weight monobasic salt solution
Readout Name: Specific Gravity
No unit in the answer, only the number.

- Compound: "CCN.O=C(O)CNCP(=O)(O)O"
  Specific Gravity: 1.1599
- Compound: "C[S+](C)C.O=C([O-])CNCP(=O)(O)O"
  Specific Gravity: 1.1904
- Compound: "CCCN.O=C(O)CNCP(=O)(O)O"
  Specific Gravity: 1.1429
- Compound: "O=C(O)CNCP(=O)(O)O"
  Specific Gravity: 1.1814
- Compound: "CC(C)N.O=C(O)CNCP(=O)(O)O [glyphosate IPA salt, isopropylammonium salt of glyphosate]"
  Specific Gravity: 1.1554

Let us examine a further case.
Item: CN | Specific Gravity: 1.1667
